Hey, just so you know, these numbers are from patent US20250188057A1.

Molecular target: glucosylceramide synthase (GCS) (Homo sapiens (Human), UniProt Q16739)
Sequence (Q16739 whole entry): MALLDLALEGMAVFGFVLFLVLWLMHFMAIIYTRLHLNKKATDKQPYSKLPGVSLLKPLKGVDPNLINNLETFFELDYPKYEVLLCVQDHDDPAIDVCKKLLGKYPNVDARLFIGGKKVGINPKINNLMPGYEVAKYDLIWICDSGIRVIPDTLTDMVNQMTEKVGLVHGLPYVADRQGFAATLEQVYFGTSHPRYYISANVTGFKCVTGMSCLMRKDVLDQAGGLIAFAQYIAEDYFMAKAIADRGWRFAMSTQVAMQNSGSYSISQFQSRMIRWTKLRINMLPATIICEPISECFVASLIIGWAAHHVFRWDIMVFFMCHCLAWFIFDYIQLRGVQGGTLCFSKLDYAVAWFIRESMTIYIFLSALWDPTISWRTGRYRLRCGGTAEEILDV
Experiment: UDP-Glo glucosylceramide synthase biochemical assay
Details: endogenous GCS in Golgi preparations isolated from human A375 malignant melanoma skin cells; UDP detection by luminescence
Excerpt: A UDP-Glo™ glucosylceramide synthase biochemical assay was utilized to evaluate the effect of test compounds on the activity of endogenous levels of GCS enzyme contained within Golgi preparations isolated from human A375 malignant melanoma skin cells. […] Using Promega's UDP-Glo™ Glycosyltransferase assay kit (Promega Corporation, Madison, WI, USA (Promega)), GCS activity was indirectly measured by detecting the amount of UDP produced. […] The generated light was detected using a luminometer. […]
Label scheme, based on IC50: bottom end: < 200 nM; midrange: ≥ 200 nM and < 1000 nM; top end: ≥ 1000 nM

[[record]]
compound = "Cc1nc(N2CC(c3nc4ccccc4n3C)C2)cc(N2CC3(CCCC3)CC2=O)n1 [Compound 120]"
answer_label = "top end"

[[record]]
compound = "N#Cc1cnc(C2CC2)nc1OCC12CC(C1)N(c1ncc(C(F)(F)F)cn1)C2 [Compound 54]"
answer_label = "bottom end"

[[record]]
compound = "N#Cc1cnc(C2CC2)nc1OC[C@H]1CCN(c2cc(C(F)(F)F)ccn2)C1 [Compound 46]"
answer_label = "top end"

[[record]]
compound = "OCc1cnc(C2CC2)nc1OC[C@@H]1CN(c2ccc(C(F)(F)F)nc2)CCO1 [Compound 3]"
answer_label = "top end"

[[record]]
compound = "OCc1cnc(C2CC2)nc1OC[C@H]1CN(c2ccc(C(F)(F)F)nc2)CCO1 [Compound 4]"
answer_label = "top end"

[[record]]
compound = "Cc1nc(-c2ccc(N3CC[C@H](COc4nc(C5CC5)ncc4C#N)C3)cc2)co1 [Compound 40]"
answer_label = "bottom end"

[[record]]
compound = "Cc1cc(N2CC[C@H](COc3nc(C4CC4)ncc3C#N)C2)ncc1F [Compound 30]"
answer_label = "top end"

[[record]]
compound = "COc1ccc(N2CCC(COc3nc(C4CC4)ncc3C#N)C2)cc1 (centres unmarked) [Compound 107]"
answer_label = "bottom end"

[[record]]
compound = "N#Cc1cnc(C2CC2)nc1OC[C@H]1CCN(c2cccc(-c3nccs3)c2)C1 [Compound 10]"
answer_label = "midrange"

[[record]]
compound = "OCc1c(Cl)nc(C2CC2)nc1N1CCC[C@@H]1c1ncc(-c2ccccc2)s1 [Compound 113]"
answer_label = "midrange"

[[record]]
compound = "N#Cc1cnc(C2CC2)nc1NC[C@H]1CCN(c2ccc(-n3cccn3)nc2)C1 [Compound 48]"
answer_label = "midrange"

